# pEC50 listing for each entry below
# Tested on: B16-F1 murine melanoma cells
# experiment_description: Intracellular cAMP in B16-F1 melanoma cells
# Format: cell-based
# assay_setup: B16-F1 cells, 10^-4-10^-11 M, 30 min, IBMX
pEC50: −log10 of the molar value. Where a SMILES comes first, the peptide text is derived from it. [ ]: non-standard residue; d: D form.
reported_metric: pEC50

# compound, target_entity, reported_metric, observed_measurement
records = [
    ("CC[C@@H](C)[C@@H](NC(=O)[C@@H](CO)NC(=O)[C@@H](Cc1c[nH]cn1)NC(=O)[C@@H](Cc1ccccc1)NC(=O)[C@@H](CCCNC(=N)N)NC(=O)[C@@H](Cc1c[nH]c2ccccc12)NC(=O)CNC(=O)[C@@H](CCCCN)NC(=O)[C@H]1CCCN1C(=O)[C@H](NC(C)=O)C(C)C)C(=O)N[C@@H](C(=O)N[C@H](CO)C(=O)N[C@H](CO)C(N)=O)[C@H](C)CC [compound 886, vpkgwrfhsiiss] (Ac-[dV][dP][dK]G[dW][dR][dF][dH][dS][dI][dI][dS][dS]-NH2)", "B16-F1 murine melanoma cells", "pEC50", 8.70),
    ("CSCC[C@@H](NC(=O)[C@@H](CCC(=O)O)NC(=O)[C@@H](Cc1c[nH]cn1)NC(=O)[C@@H](Cc1ccccc1)NC(=O)[C@H](CCCNC(=N)N)NC(=O)[C@@H](Cc1c[nH]c2ccccc12)NC(=O)CNC(=O)[C@@H](CCCCN)NC(=O)[C@H]1CCCN1C(=O)[C@H](NC(C)=O)C(C)C)C(=O)N[C@H](CO)C(=O)N[C@H](Cc1ccc(O)cc1)C(=O)N[C@H](CO)C(N)=O [compound 894, vpkGwRfhemsys]", "B16-F1 murine melanoma cells", "pEC50", 3.67),
    ("CC[C@@H](C)[C@@H](NC(=O)[C@@H](CO)NC(=O)[C@@H](Cc1c[nH]cn1)NC(=O)[C@H](Cc1ccccc1)NC(=O)[C@@H](CCCNC(=N)N)NC(=O)[C@@H](Cc1c[nH]c2ccccc12)NC(=O)CNC(=O)[C@@H](CCCCN)NC(=O)[C@H]1CCCN1C(=O)[C@H](NC(C)=O)C(C)C)C(=O)N[C@@H](C(=O)N[C@H](CO)C(=O)N[C@H](CO)C(N)=O)[C@H](C)CC [compound 880, vpkGwrFhsiiss] (Ac-[dV][dP][dK]G[dW][dR]F[dH][dS][dI][dI][dS][dS]-NH2)", "B16-F1 murine melanoma cells", "pEC50", 7.64),
    ("CSCC[C@H](NC(=O)[C@H](CO)NC(=O)[C@H](Cc1ccc(O)cc1)NC(=O)[C@H](CO)NC(C)=O)C(=O)N[C@@H](CCC(=O)O)C(=O)N[C@@H](Cc1c[nH]cn1)C(=O)N[C@@H](CC1CCCCC1)C(=O)N[C@@H](CCCNC(=N)N)C(=O)N[C@@H](Cc1c[nH]c2ccccc12)C(=O)NCC(=O)N[C@@H](CCCCN)C(=O)N1CCC[C@H]1C(=O)N[C@H](C(N)=O)C(C)C [compound 892, SYSMEH(L-Cha)RWGKPV]", "B16-F1 murine melanoma cells", "pEC50", 7.68),
]
